System: MS2 coat protein
Assay: apparent KD of MS2 coat protein; higher = weaker reporter binding
Settings: Eterna round: R107; input ligand: none
Quantity: apparent KD of MS2 coat protein

INSERT INTO results (biosequence, quantity, measured) VALUES
  ('GGGUCGGGCGCGGCCGCCACUGCGGUGAUGUGACAUGAGGAUCACCCAUGUUGUCAUGUGGCACAUAGGACCGGGCGCCCGGCCC [#1 Exclusion - Tryptophan B Attempt #8 (HarryS)]', 'apparent KD of MS2 coat protein', '29.1 nM'),
  ('GGUGGCGGGACUGAUACCAGCCACCACCGAUAGACCACAUGAGGAUCACCCAUGUUGGGUGGCCCUUGGCAGCAGUCUUGCGGCG [#1 Same State - Theophylline B Attempt #15 (HarryS)]', 'apparent KD of MS2 coat protein', '527 nM'),
  ('AGUCUUAAUGGAAGGAGCGCAGUCAUAACAUGAGGAUCACCCAUGUCGAUGUGAGGGUCAUUGCAGGUAGGUCGCCAUACUAAGA [Same State - Arginine B (Freestyle 4)]', 'apparent KD of MS2 coat protein', '31 nM');

* * *

System: MS2 coat protein
Assay: apparent KD of MS2 coat protein; designed switch direction (-1 OFF switch, 1 ON switch): -1; higher = weaker reporter binding
Details: input ligand: none
Catalogue of apparent KD of MS2 coat protein readings, one per entry.
Quantity: apparent KD of MS2 coat protein (nM)

INSERT INTO assay_data (biosequence, value_unit, measured) VALUES
  ('ACUUGUAGAGGAUAUACGAGGGCCCAAGCGGCGAGAGCCGCACAUGAGGAUCACCCAUGUAGAAGGCUACUAUU [JL-ex2-4.25 ViennaUCT mod] (Eterna round: R97, puzzle: Exclusion 2)', 'nM', 116),
  ('ACUUGUUGUCCUUGAUUUUACAUGAGGAUCACCCAUGUUAUUUUGAUUAUGAUGUGUAAGUUUGUUGCUCGUUUUAU [JR_STOV1_Sub067] (Eterna round: R97, puzzle: Sensor, turn-off variant 1)', 'nM', 67.4),
  ('GUGAUCUAUCAUGUAAUCAACAUGAGGAUCACCCAUGUAGACAAGUUUUUUGCUCGUCUGAUAAUAAGAUAGAUCAC [Antenna 16 - Jieux - Sensor, turn-off variant 1] (Eterna round: R97, puzzle: Sensor, turn-off variant 1)', 'nM', 12.3),
  ('UGUGUGAGACAGGAUAUGCCGGUUGUGUUGCUGGUAGAAGGGUCUACAUGAGGAUCACCCAUGUGGCCGGUUGG [Ex6 #80] (Eterna round: R97, puzzle: Exclusion 6)', 'nM', 17.3),
  ('UUGUGAGGUGUAGGAUAUUGUUGUUGUUUUUAGCGAGAAGGACAUGAGGAUCACCCAUGUGUCGUGUUUUUUUUUUUUUUUUUU [simply blue] (Eterna round: R96, puzzle: Exclusion NG 1)', 'nM', 59.1),
  ('CGUGACUAAGGAUAUACAUGAGGAUCACCCAUGUGAUUCAAGAUUUUCGACUGGAGAGGUAGAAGGUGGAUGCC [Eternabot (L1) Solution 99] (Eterna round: R97, puzzle: Exclusion 3)', 'nM', 94.4),
  ('CGUUCGCGAGGAUAUGCAUUCGAGUCCACUACGUGUCUGGGACUUGAGGAUCACCCAAGUAGAAGGCGCCUCAA [salish99_ex2_r4_651] (Eterna round: R97, puzzle: Exclusion 2)', 'nM', 230),
  ('ACAUGUCCUGAGGAUAUCAAAGUCCUCCCGACAUGAGAAGGCAGGACAUGAGGAUCACCCAUGUGGAGCAGGGA [Aarorbeti] (Eterna round: R97, puzzle: Exclusion 6)', 'nM', 111),
  ('UGCAGACGAGGAUAUGAUAAAGAUCACAUGAGGAUCACCCAUGUAGCGUCGAUAGACGCAUCAGAAGGCGUCUGCA [E5/1-A2] (Eterna round: R97, puzzle: Exclusion 5)', 'nM', 16),
  ('AUAAUGUAAGGAUAUCAGUCGUACAGCUUCGGCUGUACGACUGAGAAGGUACAUGAGGAUCACCCAUGUGAUCA [E4/8-A1] (Eterna round: R97, puzzle: Exclusion 4)', 'nM', 1680);

* * *

Tested on: MS2 coat protein
Test: apparent KD of MS2 coat protein; designed switch direction (-1 OFF switch, 1 ON switch): -1; higher = weaker reporter binding
Conditions: input ligand: none
Please note: true applies when apparent KD of MS2 coat protein is 50 nM or greater, and false applies otherwise.

INSERT INTO measurements (biosequence, label) VALUES
  ('ACAUGUUAUUUAGGAUAUUGGACACAUGAGGAUCACCCAUGUACCCGGAGGCUUUACUAUGAGUUCGAGAAGGAGAUGUACAUG [Ex NG2 #70] (Eterna round: R96, puzzle: Exclusion NG 2)', 'true'),
  ('CCACGACAUGAGGAUCACCCAUGUGAGGAUAUGGCCUGAAAAGCGUGAGCAGUUUCAAUCAGAAGGCGCGUGGG [salish99_ex1_r4_062] (Eterna round: R97, puzzle: Exclusion 1)', 'true'),
  ('AACCUGAGGCUUUGCUUUAGGUGUACAUGAGGAUCACCCAUGUAGGAUAUGGUAGGCUUUGCUUACCAGAAGGACAUGUUAAUU [JL ENG3 1.11] (Eterna round: R96, puzzle: Exclusion NG 3)', 'false'),
  ('CAGAAUUGAGGAUAUGAUCAAUUUAACAUGAGGAUCACCCAUGUAUGGGAAUGAUUCUGAUCAGAAGGCGAUUCUU [Exclusion 5: 1:a] (Eterna round: R96, puzzle: Exclusion 5)', 'true'),
  ('GGUGUGCUAGGAUAUGCUUUGGGCUCGCUUUCCUUCGUUUUACUUGAGGAUCACCCAAGUAGAAGGUGCUUGCC [salish99_ex2_r4_038] (Eterna round: R97, puzzle: Exclusion 2)', 'false'),
  ('AUUAGUAAUAAGGAUAUCACUAGCUUCGGCUAGUGAGAAGGUAUUACAUGAGGAUCACCCAUGUGAUUAAUUAA [E6/5-A1] (Eterna round: R97, puzzle: Exclusion 6)', 'true'),
  ('GCACGGAGUGUAGGAUAUUAGUGCGAUUAGCACUGAGAAGGACAUGAGGAUCACCCAUGUUCCUCAAUAAUUAGCCUUCCGUGC [Eli exng1 - 038] (Eterna round: R96, puzzle: Exclusion NG 1)', 'false'),
  ('AUGUCGGCAGGAUAUACAUGAGGAUCACCCAUGUAAAUUUUUCGUUUAACUUGAAUGUGUAGAAGGGCCAUGUA [Ex3 #69] (Eterna round: R97, puzzle: Exclusion 3)', 'false'),
  ('GGGUGACAUGAGGAUCACCCAUGUCAGGAUAUGAUUCUGCUUGGGAAACCGAGUAGAAUCAGAAGGGACAUCCC (Eterna round: R97, puzzle: Exclusion 1)', 'true'),
  ('AUUUAGCAAGUUAGAUCCUACAUGAGGAUCACCCAUGUUGUUCGUCUUAUUUGAAGACAACACAAAAGUGUUGUCUU [Omei Mir OFFv1 B3] (Eterna round: R97, puzzle: Sensor, turn-off variant 1)', 'true'),
  ('AAAAAACAUGAGGAUCACCCAUGUGAGGAUAUCUGUAUUCAAUCCUCGGAUUGAAUACAGAGAAGGCACAUGGG [Ex1: 609] (Eterna round: R96, puzzle: Exclusion 1)', 'false'),
  ('GUCAGCUCGUGAGGAUAUACAUCACUGCUUCGGCAGUGUAUUAAGAUCACAUGAGGAUCACCCAUGUAGAAGGUACGAGCUGAC [ENG2/2-C1] (Eterna round: R96, puzzle: Exclusion NG 2)', 'false'),
  ('GUGUUGCGAGGAUAUAUAAGGGUAUGUUCUUAGGAUAUGGAACAUGAGGAUCACCCAUGUAGAAGGUGCAUAAC [JR_Ex2_Sub046] (Eterna round: R97, puzzle: Exclusion 2)', 'true'),
  ('ACACAAAGCUAGGAUAUCGAGGCAUCUUCGGCCCGAGAAGGAGCCACAUGAGGAUCACCCAUGUGGUGAUCCUG [eternacac ex6r4 sub4] (Eterna round: R97, puzzle: Exclusion 6)', 'true'),
  ('AGCUGUGGCCGAGGAUAUCCAACUUCAAAUACCGACGUAUAGUCGGACAUGAGGAUCACCCAUGUGGAGAAGGCGGUCUCAGCA [Eli eng2 - 038] (Eterna round: R96, puzzle: Exclusion NG 2)', 'false'),
  ('CCACUGCAUUGCAGUGUCGACAUGAGGAUCACCCAUGUGUCGCAGGCGCCGAGCUUUCCGCUCGUUACGUAUCGACG [Arorin] (Eterna round: R96, puzzle: Sensor v2, turn-off variant)', 'true'),
  ('GCUGGUCGAGGAUAUACAUGAGGAUCACCCAUGUGAUUAGCAGUCCUCGGACUGCAAUGUAGAAGGCGACCAGC [E3/2-A1] (Eterna round: R97, puzzle: Exclusion 3)', 'true'),
  ('UCUCGCGGGCAAGGAUAUCCUACGUUGUUCUGGCCCGUGCAUGUUACAUGAGGAUCACCCAUGUGGGAGAAGGUGCACCAGGGC [Design 38] (Eterna round: R96, puzzle: Exclusion NG 2)', 'true'),
  ('AGUAUGCGGCAGGAUAUCCAUCCGCGGAAAGGUGGAGAAGGGCUGACAUGAGGAUCACCCAUGUGCGUCCUGUA [salish99_ex6_r4_029] (Eterna round: R97, puzzle: Exclusion 6)', 'false');
